Tested on: RPMI-8226 leukemia
Procedure text: NCI-60 one-dose screen, 48 h
Experimental context: 10 µM unless noted
Compounds without any hit were thinned out: in the full panel of roughly 83,000, 20% have a hit. Active and inactive are the calls of the source. Rule for the calls: active = growth percent below 10; inactive = the rest.
Possible outcomes: y for active, n for inactive

| Molecule | Classification |
| --- | --- |
| Cn1ccnc1C(=O)/C=C/C=C/c1ccc(C(=O)Nc2ccc(F)cc2)cc1 | y |
| COc1cc2oc(-c3cccc(NC(=O)c4cc(N)ccc4Cl)c3)cc(=O)c2c(OC)c1OC | n |
| CCOC(=O)c1c(N)c(C#N)cn1-c1cc(OC)c(OC)c(OC)c1 | n |
| COc1ccc(-c2nc3cccc(O)c3c(=O)n2Cc2ccccc2)cc1COc1ccc(NC(C)=O)cc1 | n |
| COc1ccc(-c2nc(C(Cl)Cl)nc3cc(-c4ccccc4)nn23)cc1 | n |

###

Tested on: K-562 leukemia
Procedure text: NCI-60 one-dose screen, 48 h (100 = growth as untreated, 0 = no growth, -100 = all killed)
Experimental context: 10 µM unless noted
Experimental: Cells are grown in 96 well plates and exposed to the test compound for 48 hours. Compounds are tested at a single concentration, which is 10^-5 M for most compounds. The reported endpoint is percent growth (GI% or GIPRCNT), where numbers from 0 - 100% represent growth inhibition, and numbers from -100% - 0 represent cell death. For example, a value of 40 represents 60% growth inhibition. A value of 0 means no net growth occurred over the course of the experiment. […]
Compounds without any hit were thinned out: in the full panel of roughly 83,000, 20% have a hit.
// class assignment uses growth with these ranges: band 1 = under 10%, band 2 = from 10% up to 80%, band 3 = 80% and over

| Compound | Target or system | Classification |
| --- | --- | --- |
| CN(C)CCNC(=O)c1ccc(-c2nc3ccc4[nH]ncc4c3c3c2COCC3)cc1 | K-562 leukemia | band 1 |
| NC(N)=Nc1ccc(Oc2cccc(NC(N)=Nc3ccc(I)cc3F)c2)cn1 | K-562 leukemia | band 2 |
| c1cn2c(ccc3nc(-c4cn[nH]c4)c4c(c32)CCCC4)n1 | K-562 leukemia | band 3 |
| CNCc1cccc2c1OCCCCCCC(C)(O)CC(C)(C)S(=O)(=O)c1ccc(cc1)-c1cnc(N)c(n1)C(=O)N2 (stereo not drawn) | K-562 leukemia | band 1 |
| CC1=NC2=NN3C(=NN2C(c2ccccc2)=C1)N=NC(c1ccc(Br)cc1)=C3c1ccc(Br)cc1 | K-562 leukemia | band 3 |
| Cn1cc(CNc2nc3ccc(OC/C(=C/F)CN)cc3o2)ccc1=O | K-562 leukemia | band 3 |
| Cc1cc(S(=O)(=O)N(C)C)cc(NCC(=O)NC(=O)NCC(C)C)c1C | K-562 leukemia | band 3 |
| CN1c2ccccc2Sc2cc(C=C(C#N)C#N)ccc21 | K-562 leukemia | band 3 |
| COc1cc(OC)c(S(N)(=O)=O)cc1C(=O)/C=C/c1ccc(C)cc1 | K-562 leukemia | band 1 |
| CCCCCc1ccc(S(=O)(=O)Nc2cc(-c3csc(NC(=O)CN4CCN(C)CC4)n3)ccc2N2CCN(C)CC2)cc1 | K-562 leukemia | band 1 |
| NC(N)=Nc1ccc(Oc2cccc(NC(N)=Nc3ccc(Br)cc3)c2)cn1 | K-562 leukemia | band 2 |
| Cc1ccc2c(c1)C(=O)/C(=C/c1cccc(F)c1)S2 | K-562 leukemia | band 3 |
| CC(C)(C)n1cc(-c2ccnc(NCCCNS(=O)(=O)c3cccc(F)c3)n2)c(-c2ccc(Cl)c(O)c2)n1 | K-562 leukemia | band 2 |
| COc1ccc([C@H]2c3[nH]c4ccccc4c3C[C@H]3C(=O)N(C4CCN(Cc5c(Cl)cccc5Cl)CC4)CC(=O)N23)c(OC)c1 | K-562 leukemia | band 3 |
| Cc1ccc(C2=NN(C)C(=O)C3(CCCC3)C2)cc1 | K-562 leukemia | band 3 |
| COc1cc(OC)cc(C(=O)Nc2cccc(C#Cc3cccc4[nH]nc(N)c34)c2)c1 | K-562 leukemia | band 1 |
| CCN(CC)c1cn(-c2ccc(S(N)(=O)=O)cc2)nn1 | K-562 leukemia | band 3 |
| COc1ccc([C@H]2[C@H](O)C(=O)N2c2cc(OC)c(OC)c(OC)c2)cc1F | K-562 leukemia | band 1 |
| COc1ccc(-n2c(/C=C3\C(=O)Nc4ccccc43)ccc2CO)cc1 | K-562 leukemia | band 3 |
| COc1ccccc1C(=O)Nc1cccc2c1C(=O)C(=O)C=C2 | K-562 leukemia | band 2 |
| CCNC(=O)N1CCc2cc(OC)c(OCCc3ccc(OC)c(N)c3)cc2C1c1ccc(C)cc1C (stereo not drawn) | K-562 leukemia | band 2 |
| COc1c(N2CC3CCCNC3C2)c(F)cc2c(=O)c(C(=O)N/N=C/c3ccc4c(c3)OCO4)cn(C3CC3)c12 (stereo not drawn) | K-562 leukemia | band 1 |
| CCOP(=O)(OCC)OC[C@]12CCC(C)(C)C=C1[C@H]1CC[C@@H]3[C@@]4(C)CC[C@H](OP(=O)(OCC)OCC)C(C)(C)[C@@H]4CC[C@@]3(C)[C@]1(C)CC2 | K-562 leukemia | band 1 |
| COc1ccc2[nH]cc(-c3csc4nc(-c5ccccc5)cn34)c2c1 | K-562 leukemia | band 2 |
| CCO/C=N/C1=C(C#N)C(c2ccc(OC)cc2)c2sc3c(CC)cccc3c2O1 (stereo not drawn) | K-562 leukemia | band 2 |
| Nc1nc(N)c2c(n1)NC(c1ccc(Cl)cc1)CC(c1ccc(Nc3nc(NCCO)nc(N4CCOCC4)n3)cc1)=N2 (stereo not drawn) | K-562 leukemia | band 2 |
| Cc1ccc(NC(=O)c2ccc(CN3CCOCC3)c(C(F)(F)F)c2)cc1Oc1ccc(-c2[nH]nc3ncnc(N)c23)cc1 | K-562 leukemia | band 2 |
| COc1cc(OC)c(/C=C/S(=O)(=O)Cc2ccc(OC)c(NC(=O)CCC(=O)NO)c2)c(OC)c1 | K-562 leukemia | band 2 |
| C=CCOc1cccc(/C=C2\SC(=S)N(C3CC(=O)N(c4ccc(Br)cc4)C3=O)C2=O)c1 (stereo not drawn) | K-562 leukemia | band 3 |
| C#CCOC(=O)[C@@H]1CCCN1CC#C | K-562 leukemia | band 2 |
| O=C(Cn1cc[n+](CC(=O)c2ccc(-c3ccccc3)cc2)c1)Nc1cccc2cccnc12 | K-562 leukemia | band 2 |
| O=C(NNc1nc2cc(F)ccc2n2c(CN3CCC(O)C3)ccc12)c1cnccn1 (stereo not drawn) | K-562 leukemia | band 2 |
| Nc1nc(Nc2ccccc2SSc2ccccc2Nc2nc(N)nc(-c3cccc(Br)c3)n2)nc(-c2cccc(Br)c2)n1 | K-562 leukemia | band 2 |
| O=C(Cn1cc(-c2ccccc2)nn1)Nc1nc(-c2ccc(Cl)cc2)cs1 | K-562 leukemia | band 3 |
| O=C(/C=C/c1ccc(F)cc1)c1ccc(O)cc1 | K-562 leukemia | band 2 |
| O=C(Nc1nonc1-c1ccccc1)c1ccc(C(F)(F)F)cc1 | K-562 leukemia | band 2 |
| CCCCCc1ccc(S(=O)(=O)Nc2cc(-c3csc(NC(=O)CN4CCN(CCO)CC4)n3)ccc2OC)cc1 | K-562 leukemia | band 1 |
| O=C(Nc1ccc(Br)cc1)Nc1nc2ccc([N+](=O)[O-])cc2s1 | K-562 leukemia | band 1 |

###

Tested on: DU-145 prostate
Procedure text: NCI-60 one-dose screen, 48 h
Experimental context: 10 µM unless noted
This is part of a sample that, as a whole, favours compounds with a hit. Of some 83,000 tested, about 20% had one in any assay. Activity calls are given as the source filed them. How the source made its calls: active means growth percent below 10; inactive means the rest.
Classes used: TRUE (active), FALSE (inactive)

| Molecule | Classification |
| --- | --- |
| O=C(Cn1cc[n+](CC(=O)c2ccc(-c3ccccc3)cc2)c1)Nc1cccc2cccnc12 | FALSE |
| C=CCn1c(-c2nc3ccc(C(=C(C#N)C#N)c4ccccc4)cc3[nH]2)cc2cc(Br)ccc21 | FALSE |
| N=c1c2cc(-c3ccccc3)oc2ncn1/N=C/c1ccc(Br)cc1 | FALSE |
| CC(=O)N1N=C(c2cccc(-n3cccc3)c2)CC1c1cccc(F)c1 (stereo not drawn) | FALSE |
| COc1c(N2CC3CCCNC3C2)c(F)cc2c(=O)c(C(=O)N/N=C/c3ccc(F)cc3)cn(C3CC3)c12 (stereo not drawn) | FALSE |
| NC(N)=Nc1ccc(Oc2cccc(NC(N)=Nc3ccc(I)cc3F)c2)cc1 | FALSE |
| O=C(CCC(=O)N1CCOCC1)OCCCCCCSc1ccc([N+](=O)[O-])c2nonc12 | TRUE |
| Cc1[nH]c(C(=O)Nc2ccccc2OCc2cccc(C(=O)N3CCC[C@@H](N)C3)c2)c(Cl)c1Cl | TRUE |
| CCCCCc1ccc(S(=O)(=O)Nc2cc(-c3csc(NC(=O)CN4CCN(C)CC4)n3)ccc2N2CCN(C)CC2)cc1 | FALSE |
| Cc1ccc(-n2c(/C=C3\C(=O)Nc4ccccc43)ccc2CO)cc1 | FALSE |
| COc1ccc(-n2c(SCc3nnc(NC(=O)c4ccc(Br)cc4)s3)nc3cc(OC)c(OC)cc3c2=O)cc1 | FALSE |
| N#C/C(=C\c1ccc(-c2ccc(Cl)cc2Cl)o1)c1ccc(F)cc1 | FALSE |
| O=C1[C@H]2Cc3c([nH]c4ccccc34)[C@@H](c3ccc(Br)cc3)N2C(=O)CN1C1CCN(CC2CCCCC2)CC1 | TRUE |
| CN(C)CCN(C)c1ccc2ncc(C#Cc3cncc(C(=O)Nc4ccc(CN5CCN(C)CC5)c(C(F)(F)F)c4)c3)n2n1 | TRUE |
| Cc1ccc(C2=Nn3c(nnc3-c3ccccc3)SC2)cc1 | FALSE |
| Cc1noc(C)c1CSc1nc2ccccc2n1-c1ccccc1 | FALSE |
| O=C(c1ccc(Cl)cc1)C1[C@H](c2ccc(Cl)cc2)[C@@H](c2ccccc2)NC12C(=O)Nc1ccccc12 (stereo partly drawn) | FALSE |
| COc1ccc(S(=O)(=O)NCCCNc2nccc(-c3[nH]c(-c4ccccc4)nc3-c3ccc(Cl)c(O)c3)n2)cc1 | FALSE |
